Cited source: PubChem BioAssay

protocol: VP16 transactivation inhibitors, counter-screen for SRC1 inhibitor project, cell-based, luminescence, high throughput (AID 588824)
test.parameters: cell-based VP16 transactivation luciferase luminescence; at 3.6 µM
Active and inactive are the calls of the source. No stated cut-off is given here; in the data, active means inhibition above about 25%; inactive means the rest.
Classes used: active, inactive

- compound: "Cc1cc2[nH]c(=O)c(=O)[nH]c2cc1S(=O)(=O)NC1CCC(C)CC1 (stereo unspecified)"
  group.label: "inactive"
- compound: "CCCc1nc2c(=O)n(C)c(=O)nc-2n(C)n1"
  group.label: "active"
- compound: "Cc1cc(C)c2c(N)c(C(=O)Nc3ncc(C)s3)sc2n1"
  group.label: "inactive"
- compound: "CCN(CC)Cc1c(O)ccc2c([N+](=O)[O-])c(C)n(-c3ccc(OC)cc3)c12"
  group.label: "active"
- compound: "Cc1ccc(-c2cc3c(N=O)c4ccccc4c-3n[nH]2)cc1"
  group.label: "active"
- compound: "CNc1cncc(-c2ccc(NS(C)(=O)=O)cc2)n1"
  group.label: "active"
- compound: "NS(=O)(=O)c1ccc(CCNC(=O)c2ccc(C#CC3(O)CCCCC3)cc2)cc1"
  group.label: "inactive"
- compound: "Cc1ccc(OCC(=O)c2cc(C)n(Cc3cccs3)c2C)c([N+](=O)[O-])n1"
  group.label: "inactive"
- compound: "CC1=C(C(=O)OC2CCCCC2)C(c2ccc(C)o2)C2=C(CC(C)(C)CC2=O)N1 (stereo unspecified)"
  group.label: "inactive"
- compound: "c1ccc(-c2ccc(-c3nc(-c4ccccn4)no3)cc2)cc1"
  group.label: "active"
- compound: "Cn1c(=O)c2c(nc(Oc3ccc4ccccc4c3)n2C)n(C)c1=O"
  group.label: "active"

---

Quick list: inhibition per entry.
protocol: VP16 transactivation inhibitors, counter-screen for SRC1 inhibitor project, cell-based, luminescence, high throughput (AID 588824)
test.parameters: cell-based VP16 transactivation luciferase luminescence; at 3.6 µM; stronger effect = higher value
measured.quantity: inhibition (%)

- molecule: "CCc1c(C)nc2ccc(Br)cc2c1SCCC#N"
  measured.quantity: "inhibition"
  endpoint.unit: "%"
  observed.measurement: 33.5
- molecule: "NCCCNc1nc(N)c([N+](=O)[O-])c(NC2CCCCC2)n1"
  measured.quantity: "inhibition"
  endpoint.unit: "%"
  observed.measurement: 27.1
- molecule: "COc1ccc(-c2cnc(N)nc2-c2ccc(OC)cc2O)cc1"
  measured.quantity: "inhibition"
  endpoint.unit: "%"
  observed.measurement: 18.4
- molecule: "Cc1ccc(N(Cc2cc(=O)[nH]c3ccccc23)C(=O)CCl)c(C)c1"
  measured.quantity: "inhibition"
  endpoint.unit: "%"
  observed.measurement: 24.6
- molecule: "O=S(=O)(NCC1CN(S(=O)(=O)c2c(F)cccc2F)C1)c1ccc2c(c1)OCCO2"
  measured.quantity: "inhibition"
  endpoint.unit: "%"
  observed.measurement: 17.9
- molecule: "O=c1cnnc(N/N=C/c2ccccn2)[nH]1"
  measured.quantity: "inhibition"
  endpoint.unit: "%"
  observed.measurement: 54.8
- molecule: "COc1ccc(/C=C2\\SC(=S)N(CCCC(=O)N3CCCCC3CCO)C2=O)cc1 (stereo not given)"
  measured.quantity: "inhibition"
  endpoint.unit: "%"
  observed.measurement: 13.6
- molecule: "Cc1cc(C)c2nc3nc(C)c(C)cc3c(N)c2c1"
  measured.quantity: "inhibition"
  endpoint.unit: "%"
  observed.measurement: 48
- molecule: "COc1ccc(CN(C(=O)CSc2nnc(-c3c[nH]c4ccccc34)o2)c2ccc(F)cc2)cc1OC"
  measured.quantity: "inhibition"
  endpoint.unit: "%"
  observed.measurement: -22.2
- molecule: "CCC(Cc1ccccc1)NC(=O)CCNS(=O)(=O)c1cc(Br)cnc1N (stereo not given)"
  measured.quantity: "inhibition"
  endpoint.unit: "%"
  observed.measurement: 5.04
- molecule: "O=C(N/N=C/c1c(O)ccc2ccccc12)c1cccc(C(F)(F)F)c1"
  measured.quantity: "inhibition"
  endpoint.unit: "%"
  observed.measurement: 77.4
- molecule: "Oc1ccc(-c2n[nH]c(=S)n2-c2ccc3c(c2)OCCO3)c(O)c1"
  measured.quantity: "inhibition"
  endpoint.unit: "%"
  observed.measurement: 43.7
- molecule: "CCOC(=O)CSc1cc(-c2ccccc2)nc2ncnn12"
  measured.quantity: "inhibition"
  endpoint.unit: "%"
  observed.measurement: 4.7
- molecule: "O=C1C(=O)c2cccnc2-c2ncccc21"
  measured.quantity: "inhibition"
  endpoint.unit: "%"
  observed.measurement: 96.7
- molecule: "Fc1cc2[nH]cnc2cc1Cl"
  measured.quantity: "inhibition"
  endpoint.unit: "%"
  observed.measurement: -5.47
- molecule: "O=[N+]([O-])c1ccc(Sc2cccc[n+]2[O-])c2nonc12"
  measured.quantity: "inhibition"
  endpoint.unit: "%"
  observed.measurement: 93.3
- molecule: "COc1ccc(OC)c(C2=NS(=O)(=O)N(C)C(C(=O)Nc3ccc(F)cc3F)=C2)c1"
  measured.quantity: "inhibition"
  endpoint.unit: "%"
  observed.measurement: 4.07
- molecule: "CC(CNC(=O)c1cc(COc2ccc3ncccc3c2)on1)c1ccccc1 (stereo not given)"
  measured.quantity: "inhibition"
  endpoint.unit: "%"
  observed.measurement: 3.38
- molecule: "O=C(NC1CC(=O)N(c2ccccc2)C1)C1CC1 (stereo not given)"
  measured.quantity: "inhibition"
  endpoint.unit: "%"
  observed.measurement: -9.3
- molecule: "Cc1ccc(S(=O)(=O)N2[C@@H](c3cccc(Cl)c3)C(C(=O)OC(C)(C)C)=CC[C@H]2c2ccc(C(C)C)cc2)cc1"
  measured.quantity: "inhibition"
  endpoint.unit: "%"
  observed.measurement: 11.2
- molecule: "COCCn1c(SCCCC(=O)c2ccc(Br)cc2)nnc1-c1ccncc1"
  measured.quantity: "inhibition"
  endpoint.unit: "%"
  observed.measurement: 25.2
- molecule: "O=C(c1nnsc1S(=O)c1ccc(Cl)cc1)N1CCOCC1 (stereo not given)"
  measured.quantity: "inhibition"
  endpoint.unit: "%"
  observed.measurement: -6.26
- molecule: "c1nc2sc3c(c2c2nnnn12)CCCC3"
  measured.quantity: "inhibition"
  endpoint.unit: "%"
  observed.measurement: 9.37
- molecule: "Cc1ccc(C(=O)Nc2sc(C)c(-c3ccccc3)c2C(N)=O)cc1[N+](=O)[O-]"
  measured.quantity: "inhibition"
  endpoint.unit: "%"
  observed.measurement: 22.4
- molecule: "COc1cccc(NC2=NC3(CCCCC3)N=C(N)N2)c1"
  measured.quantity: "inhibition"
  endpoint.unit: "%"
  observed.measurement: 9.05
- molecule: "O=C(NCc1ccccc1)c1cccc(NC(=O)c2ccccc2)c1"
  measured.quantity: "inhibition"
  endpoint.unit: "%"
  observed.measurement: 39.8
- molecule: "COc1ccc(/C=C2\\N=C(C(C)(C)C)OC2=O)c(OC)c1"
  measured.quantity: "inhibition"
  endpoint.unit: "%"
  observed.measurement: 3.16
- molecule: "O=S(=O)(/C(=C\\c1ccc(C(F)(F)F)cc1)c1nc2ccccc2[nH]1)c1ccccc1"
  measured.quantity: "inhibition"
  endpoint.unit: "%"
  observed.measurement: 42.4
- molecule: "Cc1ccn(CC(=O)N/N=C/c2cc([N+](=O)[O-])ccc2O)n1"
  measured.quantity: "inhibition"
  endpoint.unit: "%"
  observed.measurement: 9.09
- molecule: "CC(C)c1ccc(-c2csc3ncnc(N4CCN(C)CC4)c23)cc1"
  measured.quantity: "inhibition"
  endpoint.unit: "%"
  observed.measurement: 32.9
- molecule: "COc1ccc(CCNc2c(C)c(C)nc3ncnn23)cc1"
  measured.quantity: "inhibition"
  endpoint.unit: "%"
  observed.measurement: 29.1
- molecule: "c1cc(CNc2ccc3c(c2)OCCO3)ccn1"
  measured.quantity: "inhibition"
  endpoint.unit: "%"
  observed.measurement: -0.58
- molecule: "Cc1ccc(OCC(=O)Oc2c(C)cccc2C)cc1C"
  measured.quantity: "inhibition"
  endpoint.unit: "%"
  observed.measurement: -9.72
- molecule: "CC(C)CC[n+]1ccccc1/C=C/c1ccc(N(C)C)cc1"
  measured.quantity: "inhibition"
  endpoint.unit: "%"
  observed.measurement: 79.3
- molecule: "CCOc1cc(/C=N/Nc2nc3ccccc3[nH]2)cc(Br)c1OCC(=O)N(C)C"
  measured.quantity: "inhibition"
  endpoint.unit: "%"
  observed.measurement: -3.09
- molecule: "Cc1nnc(N2CCN(Cc3ccccc3)CC2)[nH]c1=O"
  measured.quantity: "inhibition"
  endpoint.unit: "%"
  observed.measurement: -7.63
- molecule: "CCOc1ccc(NC(=O)NCCCSC2CCCCC2)cc1"
  measured.quantity: "inhibition"
  endpoint.unit: "%"
  observed.measurement: -11.4
- molecule: "COCCn1c(C)cc(C2=NNC(=NC3CC3)SC2)c1C"
  measured.quantity: "inhibition"
  endpoint.unit: "%"
  observed.measurement: 86.1
- molecule: "COc1cc(Cl)cc(/C=N\\NC(=O)c2ccc3c(c2)OCO3)c1O"
  measured.quantity: "inhibition"
  endpoint.unit: "%"
  observed.measurement: 33.6
- molecule: "O=c1[nH]c(=O)n(C2C[C@H](O)[C@@H](CO)O2)cc1C(F)(F)F (stereo not given in full)"
  measured.quantity: "inhibition"
  endpoint.unit: "%"
  observed.measurement: 44.3
- molecule: "Cn1c(/C=C/c2ccc(Cl)cc2Cl)c([N+](=O)[O-])c(=O)n(C)c1=O"
  measured.quantity: "inhibition"
  endpoint.unit: "%"
  observed.measurement: 56.3
- molecule: "COc1ccc(C(=O)C(CN2CCOCC2)c2ccccc2)cc1 (stereo not given)"
  measured.quantity: "inhibition"
  endpoint.unit: "%"
  observed.measurement: 20.6
- molecule: "COc1ccc([C@H]2CC(=O)C=C(c3ccnc4ccc(Cl)cc34)C2)cc1"
  measured.quantity: "inhibition"
  endpoint.unit: "%"
  observed.measurement: 29.2
- molecule: "O=S(=O)(Nc1cc(Sc2ncn[nH]2)c(O)c2ccccc12)c1ccccc1"
  measured.quantity: "inhibition"
  endpoint.unit: "%"
  observed.measurement: 4.9
- molecule: "CCN1/C(=C/c2ccc3cc(C)cc(C)c3[n+]2CC)Sc2cc(C)ccc21"
  measured.quantity: "inhibition"
  endpoint.unit: "%"
  observed.measurement: 59.3
